test_protocol: Human 5-HTP gastrointestinal regional absorption study (plasma 5-HTP)
Assay type: in vivo
study_conditions: both sexes, plasma, oral dosing 200 mg
measured_metric: AUC (ng·h/mL)
Numbers only, in ng·h/mL.

Would you kindly share the measured AUC for N[C@@H](Cc1c[nH]c2ccc(O)cc12)C(=O)O [5-HTP, 5-hydroxytryptophan] ?
1500

----------
test_protocol: Human 5-HTP gastrointestinal regional absorption study (plasma 5-HTP)
Format: in vivo
study_conditions: both sexes, plasma, other: intra-colonic by colonoscopy, 200 mg, intra-colonic 200 mg, read-out: Maximal average 5-HTP plasma (CMax) levels
measured_metric: Cmax

Would you kindly share the measured Cmax for N[C@@H](Cc1c[nH]c2ccc(O)cc12)C(=O)O [5-HTP, 5-hydroxytryptophan] ?
40 to 50 ng/mL
